# experimentalSystem: CYP2B6 (Homo sapiens)
# Sequence (P20813 whole entry): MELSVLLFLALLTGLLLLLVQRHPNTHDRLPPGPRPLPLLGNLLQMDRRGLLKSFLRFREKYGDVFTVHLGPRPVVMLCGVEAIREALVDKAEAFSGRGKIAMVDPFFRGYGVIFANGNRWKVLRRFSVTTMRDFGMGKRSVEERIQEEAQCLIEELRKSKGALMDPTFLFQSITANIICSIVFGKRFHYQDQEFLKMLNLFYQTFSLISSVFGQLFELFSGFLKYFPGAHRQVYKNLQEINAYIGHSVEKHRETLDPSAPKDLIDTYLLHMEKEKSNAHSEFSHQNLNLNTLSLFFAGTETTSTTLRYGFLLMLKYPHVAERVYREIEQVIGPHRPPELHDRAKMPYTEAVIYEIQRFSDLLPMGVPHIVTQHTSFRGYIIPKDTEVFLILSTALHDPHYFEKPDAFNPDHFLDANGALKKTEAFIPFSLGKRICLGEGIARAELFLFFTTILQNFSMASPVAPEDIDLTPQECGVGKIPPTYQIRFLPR
# assayText: Reversible CYP inhibition in human liver microsomes
# Assay type: in vitro ADME
# assayConditions: human, human liver microsomes, pH 7.4, CYP 2B6, 0.214 µM, Zero-Minute Preincubation; read-out: Percent of Control Activity
propertyLabel: activity at 0.214 µM

Reported activity at 0.214 µM of COc1cccc2[nH]c(C(=O)N[C@@H](CC(C)C)C(=O)N[C@@H](C[C@@H]3CCNC3=O)C(=O)CO)cc12 [PF-00835231] : 103%

----------
# Test system: CYP3A4/5
# assayText: in vitro
# assayConditions: human, microsomes, pH 7.4, Percent of Control Activity, CYP 3A4/5 (mdz), 4.48 µM, Zero-Minute Preincubation
propertyLabel: activity at 4.48 µM (%)
Your answer should be a plain number; it is taken to be in %.

Reported activity at 4.48 µM of "COc1cccc2[nH]c(C(=O)N[C@@H](CC(C)C)C(=O)N[C@@H](C[C@@H]3CCNC3=O)C(=O)CO)cc12" : 110

----------
# assayText: Metabolic stability and enzyme kinetics in liver S9 (conversion to PF-00835231)
# assayConditions: monkey, liver S9, pH 7.5, CLintu (unbound CLint)
propertyLabel: microsomal CLint (µL/min/mg)
Your answer should be a plain number; it is taken to be in µL/min/mg.

Reported microsomal CLint of "COc1cccc2[nH]c(C(=O)N[C@@H](CC(C)C)C(=O)N[C@@H](C[C@@H]3CCNC3=O)C(=O)COP(=O)(O)O)cc12" : 168

----------
# assayText: Monkey pharmacokinetic study
# assayConditions: male, cynomolgus monkey, plasma, iv, […], Vdss, Mean Data, monkey, PF-07304814 prodrug dosed […] intravenous, mean
propertyLabel: Vd (L/kg)
Your answer should be a plain number; it is taken to be in L/kg.

Reported Vd of "COc1cccc2[nH]c(C(=O)N[C@@H](CC(C)C)C(=O)N[C@@H](C[C@@H]3CCNC3=O)C(=O)COP(=O)(O)O)cc12" : 1.78

----------
# System: CYP3A4/5
# assayText: Reversible CYP inhibition in human liver microsomes
# assayConditions: human, human liver microsomes, pH 7.4, probe testosterone (tst), Percent of Control Activity, CYP 3A4/5 (tst), 200 µM, 30-Minute Preincubation
propertyLabel: activity at 200 µM (%)
Your answer should be a plain number; it is taken to be in %.

So the reported activity at 200 µM for "COc1cccc2[nH]c(C(=O)N[C@@H](CC(C)C)C(=O)N[C@@H](C[C@@H]3CCNC3=O)C(=O)CO)cc12" , on CYP3A4/5, turned out to be 15.1

----------
# experimentalSystem: CYP2C19 (Homo sapiens)
# Sequence (P33261 whole entry): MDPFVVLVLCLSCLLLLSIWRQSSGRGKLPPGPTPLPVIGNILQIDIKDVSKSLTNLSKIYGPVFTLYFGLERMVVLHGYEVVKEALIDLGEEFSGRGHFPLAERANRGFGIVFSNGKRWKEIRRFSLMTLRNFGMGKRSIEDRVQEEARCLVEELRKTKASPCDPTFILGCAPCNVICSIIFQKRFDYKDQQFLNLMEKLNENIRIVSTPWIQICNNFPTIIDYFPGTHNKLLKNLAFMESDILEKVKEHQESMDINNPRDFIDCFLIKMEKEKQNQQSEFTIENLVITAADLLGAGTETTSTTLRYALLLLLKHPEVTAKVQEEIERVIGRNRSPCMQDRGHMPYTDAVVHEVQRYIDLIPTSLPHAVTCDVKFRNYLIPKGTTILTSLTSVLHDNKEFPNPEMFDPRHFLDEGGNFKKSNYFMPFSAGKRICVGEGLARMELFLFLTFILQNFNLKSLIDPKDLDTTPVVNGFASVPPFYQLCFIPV
# assayText: Reversible CYP inhibition in human liver microsomes
# assayConditions: human, microsomes, pH 7.4, Percent of Control Activity, CYP 2C19, 0.398 µM, Zero-Minute Preincubation
propertyLabel: activity at 0.398 µM (%)
Your answer should be a plain number; it is taken to be in %.

Reported activity at 0.398 µM of "COc1cccc2[nH]c(C(=O)N[C@@H](CC(C)C)C(=O)N[C@@H](C[C@@H]3CCNC3=O)C(=O)COP(=O)(O)O)cc12" : 96.5

----------
# Test system: CYP3A4/5
# assayText: Reversible CYP inhibition in human liver microsomes
# assayConditions: human, human liver microsomes, pH 7.4, probe testosterone (tst), Percent of Control Activity, CYP 3A4/5 (tst), 2.09 µM, Zero-Minute Preincubation
propertyLabel: activity at 0 min, 2.09 µM (%)
Your answer should be a plain number; it is taken to be in %.

Reported activity at 0 min, 2.09 µM of "COc1cccc2[nH]c(C(=O)N[C@@H](CC(C)C)C(=O)N[C@@H](C[C@@H]3CCNC3=O)C(=O)CO)cc12" : 109

----------
# Test system: CYP3A4/5
# assayText: in vitro
# assayConditions: human, microsomes, pH 7.4, Percent of Control Activity, CYP 3A4/5 (mdz), 0.01 µM, Zero-Minute Preincubation
propertyLabel: activity at 0.01 µM (%)
Your answer should be a plain number; it is taken to be in %.

Reported activity at 0.01 µM of "COc1cccc2[nH]c(C(=O)N[C@@H](CC(C)C)C(=O)N[C@@H](C[C@@H]3CCNC3=O)C(=O)COP(=O)(O)O)cc12" : 102

----------
# assayText: Plasma protein binding by equilibrium dialysis
# assayConditions: dog, plasma, pH 7.4, Plasma fu, Vdss input
propertyLabel: fraction unbound at 6 h

Reported fraction unbound at 6 h of "COc1cccc2[nH]c(C(=O)N[C@@H](CC(C)C)C(=O)N[C@@H](C[C@@H]3CCNC3=O)C(=O)CO)cc12" : 0.416

----------
# experimentalSystem: CYP2C8 (Homo sapiens)
# Sequence (P10632 1-490): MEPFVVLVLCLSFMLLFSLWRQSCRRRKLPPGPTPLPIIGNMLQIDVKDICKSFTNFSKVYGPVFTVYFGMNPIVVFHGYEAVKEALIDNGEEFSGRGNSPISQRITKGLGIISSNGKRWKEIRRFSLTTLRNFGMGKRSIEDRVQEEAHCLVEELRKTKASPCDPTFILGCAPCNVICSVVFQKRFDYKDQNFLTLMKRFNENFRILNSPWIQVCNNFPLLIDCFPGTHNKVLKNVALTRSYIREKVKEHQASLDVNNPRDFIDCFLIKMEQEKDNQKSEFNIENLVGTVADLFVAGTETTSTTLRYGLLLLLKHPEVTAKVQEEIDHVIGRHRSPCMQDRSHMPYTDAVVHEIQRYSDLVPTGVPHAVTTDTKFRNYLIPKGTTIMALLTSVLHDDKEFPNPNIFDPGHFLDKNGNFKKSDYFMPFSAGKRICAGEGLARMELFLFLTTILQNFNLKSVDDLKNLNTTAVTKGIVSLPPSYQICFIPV
# assayText: Reversible CYP inhibition in human liver microsomes
# assayConditions: human, microsomes, pH 7.4, Percent of Control Activity, CYP 2C8, 15.8 µM, 30-Minute Preincubation
propertyLabel: activity at 15.8 µM (%)
Your answer should be a plain number; it is taken to be in %.

Reported activity at 15.8 µM of "COc1cccc2[nH]c(C(=O)N[C@@H](CC(C)C)C(=O)N[C@@H](C[C@@H]3CCNC3=O)C(=O)COP(=O)(O)O)cc12" : 88.9

----------
# experimentalSystem: UniProt:P11712
# Sequence (P11712 whole entry): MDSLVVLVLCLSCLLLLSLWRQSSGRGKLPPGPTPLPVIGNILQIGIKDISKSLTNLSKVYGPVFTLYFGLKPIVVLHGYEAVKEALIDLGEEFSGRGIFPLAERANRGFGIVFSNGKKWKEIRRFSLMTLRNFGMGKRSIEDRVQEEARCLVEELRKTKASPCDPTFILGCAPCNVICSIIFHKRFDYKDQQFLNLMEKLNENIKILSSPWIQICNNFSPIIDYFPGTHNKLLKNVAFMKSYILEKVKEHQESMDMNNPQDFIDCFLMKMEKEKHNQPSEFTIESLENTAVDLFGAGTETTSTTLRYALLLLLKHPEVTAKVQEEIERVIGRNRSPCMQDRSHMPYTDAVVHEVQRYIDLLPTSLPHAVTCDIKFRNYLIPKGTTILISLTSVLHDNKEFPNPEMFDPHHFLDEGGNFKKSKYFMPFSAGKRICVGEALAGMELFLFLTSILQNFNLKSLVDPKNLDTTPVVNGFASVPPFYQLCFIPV
# assayText: Reversible CYP inhibition in human liver microsomes
# assayConditions: human, microsomes, pH 7.4, Percent of Control Activity, CYP 2C9, 0.1 µM, 30-Minute Preincubation
propertyLabel: activity at 0.1 µM (%)
Your answer should be a plain number; it is taken to be in %.

Reported activity at 0.1 µM of COc1cccc2[nH]c(C(=O)N[C@@H](CC(C)C)C(=O)N[C@@H](C[C@@H]3CCNC3=O)C(=O)CO)cc12 [PF-00835231] : 108

----------
# assayText: Metabolic stability and enzyme kinetics in liver S9 (conversion to PF-00835231)
# assayConditions: rat, liver S9, pH 7.5, CL; unsaturable component, best-fit
propertyLabel: microsomal CLint (µL/min/mg)
Your answer should be a plain number; it is taken to be in µL/min/mg.

Reported microsomal CLint of "COc1cccc2[nH]c(C(=O)N[C@@H](CC(C)C)C(=O)N[C@@H](C[C@@H]3CCNC3=O)C(=O)COP(=O)(O)O)cc12" : 4.56

----------
# experimentalSystem: UniProtKB P10632
# assayText: Reversible CYP inhibition in human liver microsomes
# assayConditions: human, microsomes, pH 7.4, Percent of Control Activity, CYP 2C8, 0.214 µM, 30-Minute Preincubation
propertyLabel: activity at 0.214 µM (%)
Your answer should be a plain number; it is taken to be in %.

Reported activity at 0.214 µM of "COc1cccc2[nH]c(C(=O)N[C@@H](CC(C)C)C(=O)N[C@@H](C[C@@H]3CCNC3=O)C(=O)CO)cc12" : 91

----------
# experimentalSystem: CYP2C8 (Homo sapiens)
# Sequence (P10632 1-490): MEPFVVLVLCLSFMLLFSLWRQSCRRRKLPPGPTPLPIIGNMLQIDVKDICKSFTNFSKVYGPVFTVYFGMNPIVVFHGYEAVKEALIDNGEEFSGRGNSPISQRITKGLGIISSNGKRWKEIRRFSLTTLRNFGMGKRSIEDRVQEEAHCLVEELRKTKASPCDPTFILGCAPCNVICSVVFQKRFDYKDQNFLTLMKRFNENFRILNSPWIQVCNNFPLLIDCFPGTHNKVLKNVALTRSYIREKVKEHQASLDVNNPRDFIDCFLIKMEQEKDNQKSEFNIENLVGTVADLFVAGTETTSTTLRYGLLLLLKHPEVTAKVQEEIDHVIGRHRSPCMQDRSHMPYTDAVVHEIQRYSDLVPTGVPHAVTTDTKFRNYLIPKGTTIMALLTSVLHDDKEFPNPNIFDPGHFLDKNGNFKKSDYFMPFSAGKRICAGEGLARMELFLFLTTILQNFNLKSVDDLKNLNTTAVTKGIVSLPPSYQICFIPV
# assayText: Reversible CYP inhibition in human liver microsomes
# assayConditions: human, microsomes, pH 7.4, Percent of Control Activity, CYP 2C8, 15.8 µM, Zero-Minute Preincubation
propertyLabel: activity at 15.8 µM (%)
Your answer should be a plain number; it is taken to be in %.

Reported activity at 15.8 µM of "COc1cccc2[nH]c(C(=O)N[C@@H](CC(C)C)C(=O)N[C@@H](C[C@@H]3CCNC3=O)C(=O)COP(=O)(O)O)cc12" : 89.3
